The entries below come with measured Fold Activity values attached.
- test.method.notes: Saturation mutagenesis of SEQ ID NO:109: dicamba decarboxylation activity of point mutants (CO2 released), fold of backbone (Tables 7, 8, Megatable 1)
- cond: decarboxylation activity (CO2 released) of point mutant vs unmutated backbone protein; backbone SEQ ID NO: 109
The response must be a number in fold with no trailing unit.

1. 45 (protein, Mycobacterium sp) MANDDLAEVIAAHPDRFAGFAALPMRDPQAAAVELQRAVGTHGFCGAMINGLIEGRFLDDPAFAPLLSTAADLGVPLYLHPSFPPPQVAEIYFGGLAPVLGDLLATAGWGWHAETALHVLRLVATGVFDRLPELWVIVGHMGEMIPFALARIDTVLSPVAQLRQPVAQYFQTNVWFTTSGYTTFPPLQCALSTVGIDRLIFSVDYPYTDNTSARALLDTAPISPVDREKLAHGTVEALLRV
1.7

69 (protein, listed as Microbacterium testaceum) MATSTEGQDVTDVHAHLLMPGLHAEVERRVPDEVQAAADLELRRNGLASLQASGRMIGERFPRLTDVRARLAAMDEQGVDRQWVSPSPNHFYPWANEGLATWASGEANRLIAEHVALAPDRLVGLGVVPLQHPHLVVDALDDAVLGRGLAGVEISSFAGDVELSDERLESFWARAAELRAVVFLHPFGCSLDERLDRFYLSNTVGQPTENAVALSHLIFSGVLDRHPGLRLIAAHGGGYLPTAIGRSDRAWRVRPEARGCAHAPSTYLSKLWFDTVVHDERALRWLVEAAGADRVLLGSDFPFDMGLDDPVAFVRGAGLQDAEVSGILGGNAAELLRTRVHA has a reported Fold Activity of 1.3
